These entries and their values trace back to patent US20200121803A1.

target desc: T1, Human CD98, endogenous on HCC38, Molt-4 and Jurkat human cancer cells (human)
T1 chain: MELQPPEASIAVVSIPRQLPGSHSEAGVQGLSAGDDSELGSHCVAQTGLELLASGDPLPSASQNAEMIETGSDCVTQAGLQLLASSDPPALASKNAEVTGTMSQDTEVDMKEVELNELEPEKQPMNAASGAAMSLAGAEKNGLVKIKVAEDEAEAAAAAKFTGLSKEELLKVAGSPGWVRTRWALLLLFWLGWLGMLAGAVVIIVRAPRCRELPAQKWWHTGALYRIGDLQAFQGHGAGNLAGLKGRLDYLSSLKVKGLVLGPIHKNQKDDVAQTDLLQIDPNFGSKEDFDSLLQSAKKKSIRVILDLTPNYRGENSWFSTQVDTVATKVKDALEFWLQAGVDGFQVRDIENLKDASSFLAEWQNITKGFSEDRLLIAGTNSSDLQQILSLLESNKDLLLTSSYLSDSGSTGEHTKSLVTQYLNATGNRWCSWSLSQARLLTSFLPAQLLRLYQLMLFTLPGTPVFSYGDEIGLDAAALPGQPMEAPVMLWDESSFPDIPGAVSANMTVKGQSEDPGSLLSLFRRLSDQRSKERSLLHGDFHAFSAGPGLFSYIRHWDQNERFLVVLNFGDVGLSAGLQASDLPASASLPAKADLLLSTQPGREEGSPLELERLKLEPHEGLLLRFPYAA
assay info: cell-based or functional assay
reported metric: ADC potency, IC50 (nM), Molt-4 growth inhibition

binder	unit of measurement	measured result
Ab12-CZ (Ab12 conjugated to Bcl-xL inhibitor synthon CZ) (antibody, V domains shown) VH: EVQLVESGGGLVQPGRSLKLSCAASGFTFSDYAMAWVRQAPKKGLEWVASIIYDGRGTYYRDSVKGRFTISRDNAKSTLYLQMDSLRSEDTATYYCARQGDGTYYYWGSFDYWGQGVMVTVSS VL: DIVMTQSPSSLAVSAGETVTINCKSSQSLLSSGNQKNYLAWYQQKPGQSPKLLIYWASTRQSGVPDRFIGSGSGTDFTLTISSVQAEDLAIYHCQQYYDTPYTFGAGTKLELK	nM	0.087
Ab15-CZ (Ab15 conjugated to Bcl-xL inhibitor synthon CZ) (antibody, V domains shown) VH: EVQLVESGGGLVQPGRSLKLSCAASGFTFSDYTMAWVRQAPKKGLEWVATIIYDGRGTYYRDSVKGRFTISRDNAKSTLYLQMDSLRSEDTATYYCARQSDGTYYYWGYFDYWGQGVMVTVSS VL: DIVMTQSPSSLAVSAGETVTINCKSSQSLLFSGNQKNYLAWYQQKPGQSPKLLIYWASTRQSGVPDRFIGSGSGTDFTLTIRSVQAEDLAIYYCQQYYDSPYTFGAGTKLELK	nM	0.071
Ab13-CZ (Ab13 conjugated to Bcl-xL inhibitor synthon CZ) (antibody, V domains shown) VH: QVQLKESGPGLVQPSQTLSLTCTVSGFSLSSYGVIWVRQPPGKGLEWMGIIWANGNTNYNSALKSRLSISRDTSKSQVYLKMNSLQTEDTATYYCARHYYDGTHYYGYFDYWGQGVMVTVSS VL: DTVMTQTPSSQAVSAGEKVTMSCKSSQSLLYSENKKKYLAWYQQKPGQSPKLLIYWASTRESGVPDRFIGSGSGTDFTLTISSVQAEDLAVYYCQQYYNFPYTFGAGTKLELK	nM	0.38
